// provenance: PubChem BioAssay (Tox21)

Molecular target: Nuclear receptor subfamily 1 group I member 2 (Homo sapiens) (UniProt O75469)
Sequence (O75469 whole entry, looked up): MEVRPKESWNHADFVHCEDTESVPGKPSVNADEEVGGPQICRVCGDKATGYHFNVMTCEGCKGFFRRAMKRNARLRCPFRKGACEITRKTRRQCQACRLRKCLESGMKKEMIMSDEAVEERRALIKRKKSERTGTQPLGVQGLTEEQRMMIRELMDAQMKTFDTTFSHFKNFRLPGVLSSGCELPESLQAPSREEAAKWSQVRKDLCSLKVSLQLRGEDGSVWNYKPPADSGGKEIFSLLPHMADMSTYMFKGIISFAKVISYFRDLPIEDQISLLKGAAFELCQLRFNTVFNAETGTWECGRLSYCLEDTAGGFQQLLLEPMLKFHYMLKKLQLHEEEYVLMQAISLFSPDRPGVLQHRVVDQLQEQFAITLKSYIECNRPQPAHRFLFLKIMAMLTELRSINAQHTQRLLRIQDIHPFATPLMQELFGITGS
Test: Human pregnane X receptor (PXR) small molecule agonists, qHTS assay (AID 1346982); note: nearly all actives have a fitted effect of over 35% in size
Conditions: PXR-Luc HepG2, CYP3A4 luciferase reporter, 24 h; series mostly up to 92.4 µM
Results filed as inconclusive are left out. Calls of active or inactive are those of the source. Calls come from the whole dose curve; as a rule, active = well fitted activation curve with a large enough effect in the repeat runs; inconclusive = weak or mixed curves; inactive = no such curve, though single readings can be large or run the other way.
Respond with a class label; see Yes = active, No = inactive

stdin: Which outcome did this test record for the compound CCCCCCC1CCOC1=O (stereo unspecified) ?
stdout: No

stdin: For this compound, state the assay outcome: "COc1cccc([C@@]2(O)CCCC[C@@H]2CN(C)C)c1"
stdout: No

stdin: # lookup: test call for "Cc1ccc(S(=O)(=O)N[C@@H](CCCCN)C(=O)CCl)cc1"
stdout: No

stdin: # outcome recorded in this test, key = "CC(Cl)(Cl)Cl"
stdout: No

stdin: Tell me the assay call for "NC(=O)OCCCc1ccccc1" please.
stdout: No

stdin: Field: outcome | Entry: "Cc1ccc(-c2nc3ccc(C)cn3c2CC(=O)N(C)C)cc1"
stdout: Yes

stdin: Which result was noted for this compound in the test: "COc1ccccc1OC"
stdout: No

stdin: What did this assay record as the result for "CCOC(=O)Nc1cccc(OC(=O)Nc2ccccc2)c1" ?
stdout: Yes

stdin: Any idea what this test logged for BrCC1CO1 (stereo unspecified) ?
stdout: No

stdin: Short answer needed: outcome of this test for "CCC1(c2ccccc2)C(=O)N(COC)C(=O)N(COC)C1=O" ?
stdout: No

stdin: What was the test verdict on "CC(=NC#N)N(C)Cc1ccc(Cl)nc1" ?
stdout: No

stdin: State the result this test recorded for "N[C@@H]1C[C@H]1c1ccccc1" .
stdout: No

stdin: Field: outcome | Entry: "CCC1(CC)C(=O)C=CNC1=O"
stdout: No

stdin: Look up the recorded call for CCCOC(=O)c1cncn1C(C)c1ccccc1 (stereo unspecified) in this test.
stdout: No

stdin: So what was the verdict on "O=C1CC(=O)NC(=O)N1" in this test?
stdout: No

stdin: Dear colleague, could you share the recorded outcome for "CCN[C@@H](C)Cc1ccccc1" when you have a moment?
stdout: No

stdin: Test call for this compound, please: "C/C(=N\NC(=O)Nc1cc(F)cc(F)c1)c1ncccc1C(=O)O"
stdout: No

stdin: Just curious, what result did "CON(C)C(=O)Nc1ccc(Br)cc1" get here?
stdout: Yes

stdin: Could you please tell me the result logged for "CC(C)[C@]12CC(=O)[C@H](C)[C@H]1C2" in this assay?
stdout: No

stdin: // param item: "CN(C)CCc1c[nH]c2cccc(OP(=O)(O)O)c12" ; yields the recorded call
stdout: No

stdin: Called result for "O=C(Cl)/C=C/C(=O)Cl"
stdout: No

stdin: What outcome does the record of this test show for "Cn1c(CCCC(=O)O)nc2cc(N(CCCl)CCCl)ccc21" ?
stdout: No

stdin: Could you kindly confirm the outcome this assay logged for "Oc1ccc(Cc2ccc(O)cc2)cc1" ?
stdout: Yes

stdin: Please let me know the test result on file for "O=C(O)C(F)(F)C(F)(F)C(F)(F)C(F)(F)C(F)(F)C(F)(F)F" .
stdout: No

stdin: Hello, I am checking results. What call was entered for "COC(=O)c1ccccc1CS(=O)(=O)NC(=O)Nc1nc(OC)cc(OC)n1" ?
stdout: Yes

stdin: What is the recorded call for this compound in the test? "CCOC(=O)COc1ccc(Cl)cc1Cl"
stdout: No

stdin: Tell me the assay call for "CCc1cc(OC)c(C[C@H](C)N)cc1OC" please.
stdout: No

stdin: Hey, what did the test say about CC(C)NCC(O)c1ccc([N+](=O)[O-])cc1 (stereo unspecified) ?
stdout: No

stdin: What classification did "ClCCCCl" end up with in this test?
stdout: No

stdin: Query: recorded result category for "N=C(N)[Se]" in this test
stdout: No

stdin: Per the assay record, what outcome was assigned to "CC[C@@H](CO)NC(=O)[C@@H]1C=C2c3cccc4[nH]cc(c34)C[C@H]2N(C)C1" ?
stdout: No

stdin: Please state the recorded outcome for this compound: "CN(C)CCN(C)C"
stdout: No

stdin: Please indicate how the test categorized CC(O)CCl (stereo unspecified) .
stdout: No

stdin: What was the test verdict on "O=P(O)(O)CN(CP(=O)(O)O)CP(=O)(O)O" ?
stdout: No

stdin: For "O=C(Cl)OCc1ccccc1" , what call appears in the results of this test?
stdout: No

stdin: Look up the recorded call for "Nc1c(Cl)c(F)nc(OCC(=O)O)c1Cl" in this test.
stdout: No

stdin: In this assay, the call recorded for C=CCC1(C(C)CC)C(=O)NC(=O)NC1=O (stereo unspecified) was what?
stdout: No

stdin: Just curious, what result did CCC(C)(C#N)N=NC(C)(C#N)CC (stereo unspecified) get here?
stdout: No

stdin: Can you look up the reported call for "CCCCCCCCBr" for me?
stdout: No

stdin: What call does the record list for CC(Cc1ccccc1)NCCCCl (stereo unspecified) ?
stdout: No

stdin: Per the records of this test, what outcome belongs to "Cc1ccc2cc(C)ccc2c1" ?
stdout: No

stdin: Called result for "BrCc1ccc(Br)cc1"
stdout: No

stdin: Hi, do you know how "C=CCc1cc(OC)c2c(c1)OCO2" came out in this test?
stdout: Yes

stdin: Look up the recorded call for "CCOC(=O)NC(C)(C)Cc1ccc(Cl)cc1" in this test.
stdout: No

stdin: # fetch the recorded call for "CCCN1CCC[C@@H]2Cc3[nH]ncc3C[C@H]21" here
stdout: No

stdin: Give the logged outcome of this assay for the following compound: "C[C@H](N)C(=O)c1ccccc1"
stdout: No

stdin: What call does the record list for "CS(=O)(=O)c1ccc(C(=O)C2C(=O)CCCC2=O)c(Cl)c1COCC(F)(F)F" ?
stdout: No

stdin: Please state the recorded outcome for this compound: "c1cncc([C@@H]2CCCCN2)c1"
stdout: Yes

stdin: Check the results log: what was the call for "O=C(Cl)C(Cl)(Cl)Cl" ?
stdout: Yes

stdin: Write down the call the test reported for this compound. Item: "O=C(O)c1c(Cl)ccc2cc(Cl)cnc12"
stdout: No

stdin: Give the logged outcome of this assay for the following compound: "NCCOS(=O)(=O)O"
stdout: No

stdin: How was "CC(C)(N)Cc1ccc(Cl)cc1" classified in this test?
stdout: No

stdin: Fill in: this test's call for "O=[N+]([O-])CCO" is ___
stdout: No

stdin: Could you please tell me the result logged for "CCOP(=O)(CN(CCO)CCO)OCC" in this assay?
stdout: No

stdin: # outcome recorded in this test, key = "CNC(=O)Oc1ccccc1C(C)C"
stdout: No

stdin: What call does the record list for "ClC(Cl)(Cl)Cl" ?
stdout: No
